Experiment: soluble on expression in E. coli; label from the status in PepcDB or PDB records
experimental_readout: soluble on expression in E. coli

| macromolecule_sequence | experimental_readout | endpoint_value |
| --- | --- | --- |
| MGSDKIHHHHHHMKGVLYISFLVCILLGCSDSDGLPDGGKDKTARTELEIVSASIVEGNTQTRADVPFTPGSSIALFCHGQAAETSYTPVNNRKYTLNSGDSKWTAESEATTIYLGSEKADVCGYYPYVEGTVGTADTLYNVRTTIPMDTQDYDPSKELYYVANQEVDAKRYFVEMHFKHAYSRLVLNIGVEDAYPATCSINSVALANDSLFRKAVIDITSGTVGIHPDDTEKQFRGGYNITKDLPYLLDSPDKKYQADLLMIPTKLLPDPFEPTKGLSVIVNVSGFPATVIIPIDDLSDFESGKKYVVSLKLRGIAIKSVTVTTTDWDEKRLNEGVDYEPLPQS | soluble on expression in E. coli | not soluble |
| MSLTKQVYIIHGYRASSTNHWFPWLKKRLLADGVQADILNMPNPLQPRLEDWLDTLSLYQHTLHENTYLVAHSLGCPAILRFLEHLQLRKQLGGIILVSGFAKSLPTLQMLDEFTQGSFDHQKIIESAKHRAVIASKDDQIVPFSFSKDLAQQIDAALYEVQHGGHFLEDEGFTSLPIVYDVLTSYFSKETREGGSHHHHHH | soluble on expression in E. coli | soluble |
| MGSDKIHHHHHHMNLEEVLNYRRSVRVFDKTKPLDPEKVKHCLELATLAPNSSNMQLWEFYQVIQPELLAKISKACLDQTATSTASEVVVFVTRQDLYRIRAKFVLDFERGNVRRNSPKERQEKRIKDRELYYGKLMPFLYARFFRILGLLRSVLAKAIGLFRPIVREVSESDMRVVVHKSCALAAQTFMIAMANEGYDTCPLEGFDSKQMKKLLKLPHGAEVNMVIACGIRDGNKGIWGERGRVPFDEVYHRV | soluble on expression in E. coli | not soluble |
| NPGENPKAQKALKQLFDGAQKDDIHLYKISGYRSYPTQVKLYNNYVKRDGKKAADKYSARPGYSEHQTGLTFDVGGVDSDKNLYASFGKTEEGRWIAKNAHNYGFIIRYPKNKESITGYQYEPWHLRYLGKKKATKVYKSGETLEEFVGLK | soluble on expression in E. coli | not soluble |
| GPGSMTGPFRYVITDMDGTLLSPDHFVSDYTRDTLKTLVHEHGVIPILATGRSYADVRIIADNLKAYIWCDGTAAPGARAPASPSRAPVIYLITSNGATVHNGVTHEVVFRTSIDPALAEKLLQLLPSDEEVVNTNAYQNDDWVCRIDWPKMMAVSKESGIRFIHVPHPLPSSSCALGSAAASPDAAARGIAIGDYTGISKIFFITDDAARLAALADEVHAIAKAHGGAPVSLTFSMSDCMDIMANGVTKGEALKRLFGAILPSRDGVDVVADALAHAIAFGDGLNDAEMLASVGKGCVMGNANPKLIAQHPELEVILTNAEDGVAKKLRSAFHLPL | soluble on expression in E. coli | soluble |
| MDYYYYPFVSDPYAVYTPNVWQSQGADELYLYSMPAIERQPQPVLSNAPAQTSIVLFKELTGYPNYGNPSGNADILYTGNRGTWTFDIQPILLIPGNLTAQLVIRGVLDDHTNVPVANYSARITINGTVVHTGRLPLVHGSPAGQRFNNWRLLTFNVPNLRRNNTVVIQNTSNTGPNDWIAFDWMELRLQPR | soluble on expression in E. coli | not soluble |
| MGSDKIHHHHHHMRSITTNYSDDGYNFAFLDEQTKRMVRRTLLKALSIPGYQVPFGGREMPLASGWGTGGIQITASVLGPNDRLKVIDQGADDTTNAVSIRRFFQTVADISVTESTEEATIIQTRHRVPEAPLTEGQILVYQVPEPEPLRKLIPRESETRKMHAYAEYGAMQVTLYENIARFGRIAKTYDYPAMINGRFLMSPSPIPKFDNPKMANNPAIQFWGAGREKRIYAVPPYTSVRSLDFDDHPFEVQTWQGCCALCGSTVSYLDEVITDDKGSRMFVCSDTDFCNTRQAQAAAQPNSAGGES | soluble on expression in E. coli | not soluble |
| MAIFSRTKRVTDPLDDDAKARILSSHSYILDQDSPRLCELVHGFLEDGPEESFYDSDPDLSETSSAEHSGEASVEIVRMAVSFSDSDPYRNLLLAHVLRAVEVYSGFRSRNKTVFRDKVASFLRELGHDAAVCVSKWTSSSKLIAGSYHFIDVVHKPSDNDQKAVRYLVDLDFASEFEIARPTREYTRGLQLLPNVFVGNEENLRTIVRESCDAAKRSMKSRGLSLPPWRRSSYLQHKWFGPYKRKVGSSLGVKPLNSDAVSCRSLGFDDGAVNTRLFIRA | soluble on expression in E. coli | soluble |
| MGSDKIHHHHHHMHNKFYRGRFAVAPMLDWTTRHCRYFHRQFSQQALLYTEMITAPAILHAKYDLLEYDPAEQPVALQLGGSDPTQLANCAKLVQARGYTEINLNVGCPSDRVQNGMFGACLMANADLVADCIKAMQDVVDIPVTIKHRIGIDTLDSYAFLCDFIDKIQPYSQDFIVHARKAWLSGLSPKENREIPPLDYERVYQLKRDFPQLNISINGGIKTIDEIKQHLTKVDGVMVGREAYQNPALLGEIDQQLFDQNQPLITARIAVENMLPYIEQQLSKGVYLNHIVRHMLGAFQNCKGARQWRRHLSENACKQGAGIEVVEQALRFVTE | soluble on expression in E. coli | not soluble |
| MGSDKIHHHHHHLSIARETGSILLIPSTTTLRRAFDFETTFNDSIQFVGEDLSRQLAEDLNASKITLTSCCAYRNLSTILFNDSRIIERIDGYFQNFRYFHPDSQKIVKKLFTFMDPVRKRVSFWNIIYWNIHPTNHRKKPEKSTVSIFSFVTFQLRVDEFLENVGISLTVRNARVIETNVANDDQALELPEEDAFAKTMMVGVHIRHGMDISMNSRNRIHGHVDTPIEYYKRAIQQISKIYENVAFIICSDNVAWARRNLKLGKETLHFFCPGPREVDMAILKSCDSVIISTGTFGWWSAYLNVNASPDVYYYKHWPAPGSVMEKMTNKTEYF | soluble on expression in E. coli | not soluble |
| MGSDKIHHHHHHCNFDGRPCCWANVPPPDDQLDWQIASGVPVQLQNRGVPQPEGSYLIAYAKSAAPSDEAQFASCSIGCASSDIVVRAKHWQSESVLLQVCLRESFPSNAERNPLINCQEFPYVDGMGTTEVILPKTSLVDIVFVASNFIGDQGDVAILDDIEVSYDRNGSECQN | soluble on expression in E. coli | not soluble |
